target: MBP-RAMP2 ECD [L106R]-(GS)5-CLR ECD-H6 fusion protein (human) (UniProt O60895); test: AlphaLISA or AlphaScreen competition assays
Sequence (O60895 other isoform, or with tags, fused parts or gaps L106R L106R): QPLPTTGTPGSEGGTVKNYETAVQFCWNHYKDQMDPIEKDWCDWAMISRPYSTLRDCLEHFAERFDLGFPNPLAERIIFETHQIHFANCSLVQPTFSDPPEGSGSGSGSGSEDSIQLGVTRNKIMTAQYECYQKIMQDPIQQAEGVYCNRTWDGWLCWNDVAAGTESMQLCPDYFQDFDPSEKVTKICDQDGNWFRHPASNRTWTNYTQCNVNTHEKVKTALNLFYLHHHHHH
Where no end group is shown, it is not given here.

{"columns": ["binder", "IC50"],
 "data": [
  ["DKDNVAPRSKISPQGY-NH2 [AM(37-52)NH2]", "5 to 15 µM"]
]}
